- assay.system: cPLA2 (Homo sapiens, UniProt P47712)
- Sequence (P47712 whole entry, species assumed): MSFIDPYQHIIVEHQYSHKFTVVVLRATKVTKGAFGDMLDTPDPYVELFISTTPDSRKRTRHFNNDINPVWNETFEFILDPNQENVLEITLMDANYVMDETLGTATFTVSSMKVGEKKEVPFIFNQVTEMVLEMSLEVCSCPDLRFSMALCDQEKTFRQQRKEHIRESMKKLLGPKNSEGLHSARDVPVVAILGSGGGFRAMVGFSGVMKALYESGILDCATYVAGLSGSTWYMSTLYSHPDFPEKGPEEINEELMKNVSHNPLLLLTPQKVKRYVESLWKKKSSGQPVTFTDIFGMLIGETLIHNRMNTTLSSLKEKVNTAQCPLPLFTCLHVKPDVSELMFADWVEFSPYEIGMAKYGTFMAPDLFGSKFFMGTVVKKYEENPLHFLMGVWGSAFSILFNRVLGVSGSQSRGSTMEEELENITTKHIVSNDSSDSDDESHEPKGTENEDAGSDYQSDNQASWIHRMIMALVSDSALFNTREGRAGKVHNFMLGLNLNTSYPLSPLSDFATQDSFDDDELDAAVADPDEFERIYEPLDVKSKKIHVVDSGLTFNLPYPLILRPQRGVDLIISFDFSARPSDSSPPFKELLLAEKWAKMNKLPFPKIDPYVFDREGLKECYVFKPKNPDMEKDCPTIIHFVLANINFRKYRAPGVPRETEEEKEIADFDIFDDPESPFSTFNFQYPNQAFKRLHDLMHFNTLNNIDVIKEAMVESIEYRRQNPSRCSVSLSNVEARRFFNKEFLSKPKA
property: IC50
The reply should consist of the numeric value with the unit placed after it.

Lab note: `O=C(O)c1ccc(OCCc2c(CCNS(=O)(=O)c3c(F)cccc3F)n(C(c3ccccc3)c3ccccc3)c3ccc(Cl)cc23)cc1` gave IC50 of 400 nM

The reported IC50 of the compound `O=C(O)c1ccc(OCCc2c(CCNS(=O)(=O)c3cccc(F)c3)n(C(c3ccccc3)c3ccccc3)c3ccc(Cl)cc23)cc1` was 600 nM

Per the records, this compound ( `O=C(O)c1cccc(OCCc2c(CCNS(=O)(=O)Cc3ccc(Cl)c(Cl)c3)n(C(c3ccccc3)c3ccccc3)c3ccc(Cl)cc23)c1` ) has IC50 equal to 400 nM
